molecular target: EGLN2; assay: cell-based or functional assay
Where no end group is shown, it is not given here.
Measured Activity (%)* by item
Test Readout: Activity (%)*

Binder	Test Readout	Measured
DTDLDAEAVAPYIPADDDFQ [DTDLDAEAVApYIPADDDFQ]	Activity (%)*	26.3
DTDLDLEMLHPYIPMDDDFQ (not fully specified; printed as DTDLDLEMLHpYIPMDDDFQ) [DTDLDLEMLHpYIPMDDDFQ]	Activity (%)*	3.47
DTDLDEEALAPYIPADDDFQ [DTDLDEEALApYIPADDDFQ]	Activity (%)*	44.3

Provenance of the data: patent US20080113383A1
